Target: Galectin-3 (Gal-3) (Homo sapiens)
Sequence (P17931 114-250 limits assumed): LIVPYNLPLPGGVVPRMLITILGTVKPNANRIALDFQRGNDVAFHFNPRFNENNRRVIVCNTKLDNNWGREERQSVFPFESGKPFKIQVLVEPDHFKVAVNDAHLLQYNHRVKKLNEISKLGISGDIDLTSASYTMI

compound: OC[C@H]1O[C@@H]([Se][C@@H]2O[C@H](CO)[C@H](O)[C@H](O)[C@H]2O)[C@H](O)[C@@H](O)[C@H]1O [SeDG, di(β‐D‐galactopyranosyl)selenide]
Kd / µM: 149
